test system: BDF1 mice, P388 leukemia ip, median survival T/C; test: NCI In Vivo Anticancer Drug Screen. Data for tumor model P388 Leukemia (intraperitoneal) in B6D2F1 (BDF1) mice; conditions: endpoint: median survival time; dose: 200.0 mg/kg/injection; schedule: Q01DX001 (ip); vehicle: saline sonified; higher = longer survival
Toxic doses and inconclusive results are not listed.
Outcome measure: T/C

• COc1ccc2c(c1)CCN(C1=C(C)C(=O)CC1)C2CC(=O)O (stereo unspecified) = 100 % of control
• CCOC(=O)C(C1=NC(C)(C)CC(C)O1)C1CCCCC1 (stereo unspecified) = 105 % of control
• O=C(O)COCc1ccccc1 = 104 % of control
• COc1ccc(C=Nc2cccc3ccccc23)cc1 = 100 % of control
• C=C1CCC2(C(C)C)CC12 (stereo unspecified) = 104 % of control
• Cn1nc([N+](=O)[O-])sc1=N = 110 % of control

###

As shown below, each of these compounds has a reported T/C value.
test system: BDF1 mice, P388 leukemia ip, median survival T/C; experiment: NCI In Vivo Anticancer Drug Screen. Data for tumor model P388 Leukemia (intraperitoneal) in B6D2F1 (BDF1) mice; conditions: endpoint: median survival time; dose: 12.5 mg/kg/injection; schedule: Q01DX009 (ip); vehicle: saline; higher = longer survival
Inconclusive results and toxic doses are left out.
Outcome measure: T/C

- COc1cccc(CC2=NCCc3cc(OC)c(OC)cc32)c1: 94 % of control
- CC(=O)O.CC(=O)O.[NH-]C(CCC(N)=O)C(=O)O.[NH-]C(CCC(N)=O)C(=O)O.[Ni+2] (stereo unspecified): 104 % of control
- CN1Cc2cc3cc(c2O)C[N+](C)(C)Cc2c(Cl)c(c(Cl)c(c2Cl)C[N+](C)(C)C3)C1: 108 % of control
- CCCCCCCCCCCCSC(=N)N: 100 % of control
- O=P1(NCCCl)OCCCN1CCCl (stereo unspecified): 173 % of control
- ClCC(Cl)CN1CCCCC1 (stereo unspecified): 90 % of control
- NC(CSCc1ccccc1)CSCc1ccccc1: 109 % of control
- O=C(/C=C/c1ccc2c(c1)OCO2)/C=C/c1ccc2c(c1)OCO2: 101 % of control
- CNC(CNC(CO)CC(C)C)Cc1ccc(OCc2ccccc2)cc1 (stereo unspecified): 104 % of control
- CO[C@@H]1[C@H](O)CC[C@]2(CO2)[C@H]1[C@@]1(C)O[C@@H]1CC=C(C)C: 98 % of control
- c1ccc2c(c1)Sc1ccccc1N2CCCN1CCCC1: 104 % of control

###

As shown below, each of these molecules has a reported T/C value.
tested on: BDF1 mice, P388 leukemia ip, median survival T/C; assay: NCI In Vivo Anticancer Drug Screen. Data for tumor model P388 Leukemia (intraperitoneal) in B6D2F1 (BDF1) mice; conditions: endpoint: median survival time; dose: 100.0 mg/kg/injection; schedule: Q04DX003 (ip); vehicle: water; higher = longer survival
Toxic doses and inconclusive results are not listed.
Outcome measure: T/C

* C/C(CC(=O)O)=C(\C)C(=O)O | 108 % of control
* COc1cc2cc3c4cc(OC)c(OC)cc4cc[n+]3c(C)c2cc1OC | 190 % of control
* FC(Cl)(Cl)c1nc2nc(Cl)c(Cl)nc2[nH]1 | 102 % of control
* CCOC(=O)C(C)Oc1ccc(Cl)cc1 (centres undefined) | 113 % of control
* CC(C)(N)CCC(C)(C)NCCCN | 100 % of control
* COc1cc2cnccc2cc1O | 98 % of control
* O=C1CN(CCl)C(=O)CN1CCl | 96 % of control
* COc1cccc(C(O)c2ccncc2)c1OC (centres undefined) | 103 % of control
* O=c1[nH]c2nccnc2[nH]1 | 105 % of control

###

test system: BDF1 mice, P388 leukemia ip, median survival T/C; assay: NCI In Vivo Anticancer Drug Screen. Data for tumor model P388 Leukemia (intraperitoneal) in B6D2F1 (BDF1) mice; settings: endpoint: median survival time; dose: 50.0 mg/kg/injection; schedule: Q01DX005 (ip); vehicle: saline with Tween-80; higher = longer survival
Toxic doses and inconclusive results are not listed.
Outcome measure: T/C

• COC(=O)c1cc(=O)nc(N/N=C/c2ccc(OC)cc2)s1 = 102 % of control
• COc1ccc(CC2c3cc(OC)c(OC)cc3CCN2C)cc1OC (stereo not given) = 90 % of control
• C=C1C(=O)CCC1/C=C\C (stereo not given) = 97 % of control
• C=CC(C)C(C)(OCc1ccccc1)C(=O)O (stereo not given) = 100 % of control
• CC(C)(C)OC(=O)NC(CC(Cc1ccccc1)C(N)=O)C(=O)N1CCCC1C(=O)OCc1ccccc1 (stereo not given) = 102 % of control

###

test system: BDF1 mice, P388 leukemia ip, median survival T/C; assay: NCI In Vivo Anticancer Drug Screen. Data for tumor model P388 Leukemia (intraperitoneal) in B6D2F1 (BDF1) mice; conditions: endpoint: median survival time; dose: 100.0 mg/kg/injection; schedule: Q01DX009 (ip); vehicle: saline with Tween-80; higher = longer survival
Toxic doses and inconclusive results are not listed.
As shown below, each of these molecules has a reported T/C value.
Outcome measure: T/C

- O=C(Nc1ccc(Cl)c(Cl)c1)ON1CCCCC1: 100 % of control
- NC(=S)NCc1ccccc1C(O)c1ccccc1 (stereo not drawn): 91 % of control
- CC(=O)N\C(N)=N/N=C\C(C)=N/N=C(\N)NC(C)=O: 100 % of control
- COC(=O)c1cc(C(C)=O)ccc1OC(=O)c1ccccc1: 118 % of control
- CCOC(=O)c1cnn(C)c1N: 100 % of control
- CCCCCCSc1ncnc2nc[nH]c12: 109 % of control
- O=c1nc(Oc2ccccc2)nc2ccccn12: 97 % of control
- [O-][N+](=Nc1cccc(Cl)c1)c1cccc(Cl)c1: 93 % of control
- CC(=O)C1CC2c3ccccc3C1c1ccccc12 (stereo not drawn): 95 % of control
- O=C(Cl)C1CCCCC1: 104 % of control
- Cc1ccc(S(=O)(=O)OCC2C3CCCC2C3)cc1 (stereo not drawn): 100 % of control
- Cc1ccc(S(=O)C(C)C(Cl)c2ccccc2)cc1 (stereo not drawn): 106 % of control
- O=C(NCc1cnccn1)Oc1ccc([N+](=O)[O-])cc1: 94 % of control

###

tested on: BDF1 mice, P388 leukemia ip, median survival T/C; test: NCI In Vivo Anticancer Drug Screen. Data for tumor model P388 Leukemia (intraperitoneal) in B6D2F1 (BDF1) mice; settings: endpoint: median survival time; dose: 200.0 mg/kg/injection; schedule: Q01DX001 (ip); vehicle: saline with Tween-80; higher = longer survival
Inconclusive results and toxic doses are left out.
Outcome measure: T/C

* CC(C(Nc1ccc(C(=O)O)cc1)C(F)(F)C(F)(F)C(F)(F)F)[N+](=O)[O-] (centres undefined) | 104 % of control
* CCOC(=O)C(=Cc1ccc(O)c(OC)c1)C(=O)OCC | 95 % of control
* Cc1ccc(C)c(NC(=O)c2ccc(Cl)cc2)c1 | 104 % of control
* O=C1C(C2CCCCC2)CCCC1C1CCCCC1 (centres undefined) | 98 % of control
* CCCCCOc1cc(C(C)=O)cc(OC)c1OC(=O)c1cc([N+](=O)[O-])cc([N+](=O)[O-])c1 | 90 % of control
* O=C1CN=C(c2ccc[nH]2)c2cc(Cl)ccc2N1 | 104 % of control
* COC(=O)C(Cc1c[nH]c2ccccc12)NC(=O)C(Cc1c[nH]c2ccccc12)NC(=O)OC(C)(C)C (centres undefined) | 86 % of control
* CCOc1ccccc1NC(=O)c1ccc(Cl)cc1 | 90 % of control
* CCOC(=O)c1cc[nH]c1CC(=O)NCc1ccccc1 | 118 % of control
* CCCCCCCCCCCCCCCCOc1ccc(CC)cc1 | 100 % of control
* CC(C)(C)c1cc(Br)c(N)c(C(O)(C(F)(F)F)C(F)(F)F)c1 | 109 % of control
* Clc1cccc(N2CN(c3cccc(Cl)c3)CN(c3cccc(Cl)c3)C2)c1 | 87 % of control
* O/N=C\c1c(O)ccc2ccccc12 | 105 % of control
* CCCCCCCCCC(=O)NN1CCOCC1 | 120 % of control

###

tested on: BDF1 mice, P388 leukemia ip, median survival T/C; assay: NCI In Vivo Anticancer Drug Screen. Data for tumor model P388 Leukemia (intraperitoneal) in B6D2F1 (BDF1) mice; conditions: endpoint: median survival time; dose: 400.0 mg/kg/injection; schedule: Q04DX003 (ip); vehicle: water
Inconclusive results and toxic doses are left out. The calls were made as follows: active = survival T/C of 150% or more; inactive = T/C below 125% in these data.
Outcomes: Y (active), N (inactive)

- COc1cc2c(cc1OC)C(C#N)N(C(=O)c1ccccc1)C=C2 (configuration not stated): N
- CCOC(=O)c1cnn(C)c1N: N
- BrCC[N+]12CC[N+](CCBr)(CC1)C2: Y
- CC(=O)Nc1cc(NC(C)=O)cc(N(CCO)CCO)c1: N
- COc1cccc(C(O)c2ccncc2)c1OC (configuration not stated): N
- CCOC(=N)CC(=N)OCC: N
- Cc1ccc(CNCC(=O)O)cc1: N
